target: human CD33 variant Y49C (human, UniProt P20138 18-364); assay: flow cytometry, IgG on cells expressing the mutant
Sequence (P20138 18-364 Y49C limits assumed): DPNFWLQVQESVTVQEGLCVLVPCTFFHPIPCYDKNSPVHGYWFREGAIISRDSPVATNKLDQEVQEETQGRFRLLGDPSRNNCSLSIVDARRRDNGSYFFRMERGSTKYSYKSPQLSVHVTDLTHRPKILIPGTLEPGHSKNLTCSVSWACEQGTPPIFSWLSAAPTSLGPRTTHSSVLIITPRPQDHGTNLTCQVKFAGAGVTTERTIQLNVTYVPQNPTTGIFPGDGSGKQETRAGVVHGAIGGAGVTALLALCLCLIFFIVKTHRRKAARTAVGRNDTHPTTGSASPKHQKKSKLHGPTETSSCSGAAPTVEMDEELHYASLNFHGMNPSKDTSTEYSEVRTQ
quantity_measured: Mean % WT Binding

Query :: Recorded Mean % WT Binding for Refmab #4 (antibody, human IgG1, V domains shown, Tested in IgG format; human IgG1 Fc silent (PG-LALA)) VH: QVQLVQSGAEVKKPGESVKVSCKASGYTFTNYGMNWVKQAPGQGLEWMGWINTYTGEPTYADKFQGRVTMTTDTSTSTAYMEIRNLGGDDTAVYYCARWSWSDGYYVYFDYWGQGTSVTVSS VL: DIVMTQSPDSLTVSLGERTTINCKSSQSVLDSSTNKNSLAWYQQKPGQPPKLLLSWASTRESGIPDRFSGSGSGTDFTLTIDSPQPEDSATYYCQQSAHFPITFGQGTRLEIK , please?
Result :: 0.5 % of WT
